# ASSAY_INFO: qHTS RealTime-Glo MT Cell Viability Assay in HEK293 cells - 16 hour (AID 1224872); note: nearly all actives have a fitted effect of over 50% in size
# REPORTED_CONDITIONS: RealTime-Glo luminescence; series mostly up to 76.8 µM
Results filed as inconclusive are left out. Activity calls are given as the source filed them. Calls come from the whole dose curve; as a rule, active = well fitted cell-killing curve with a large enough effect in the repeat runs; inconclusive = weak or mixed curves, or effect the other way; inactive = flat fitted curve, though single readings scatter.
Choose the fitting class; nothing outside active, inactive is accepted.

Worked set:
> print(dat)
                                   molecule  assigned.class
1  COc1ccc(OC(F)(F)F)cc1CN[C@H]1CCCN[C@H]1c1ccccc1          active
2  CCCCC1(COC(=O)CCC(=O)O)C(=O)N(c2ccccc2)N(c2ccccc2)C1=O        inactive
3        NS(=O)(=O)c1cc2c(cc1Cl)NCNS2(=O)=O        inactive
4             CCc1nc(N)nc(N)c1-c1ccc(Cl)cc1        inactive
5  CCCCCCCC(=O)OCC(COC(=O)CCCCCCC)OC(=O)CCCCCCC        inactive

Query: Which result was noted for this molecule in the test: `CC(C)c1c(C(=O)Nc2ccccc2)c(-c2ccccc2)c(-c2ccc(F)cc2)n1CC[C@@H](O)C[C@@H](O)CC(=O)O`
Reply: inactive

Query: Which result was noted for this molecule in the test: `O=C(Nc1ncc([N+](=O)[O-])s1)c1cccs1`
Reply: inactive

Query: Which result was noted for this molecule in the test: `CCOC(N)=O`
Reply: inactive

Query: Which result was noted for this molecule in the test: C=C(C)C(=O)OCC(C)O (stereo not given)
Reply: inactive

Query: Which result was noted for this molecule in the test: `O=CC(=O)c1ccccc1`
Reply: inactive

Query: Which result was noted for this molecule in the test: `Nc1ccc(S(N)(=O)=O)cc1`
Reply: inactive

Query: Which result was noted for this molecule in the test: `O=C1OC2(c3ccccc31)c1cc(Br)c(O)c(Br)c1Oc1c2cc(Br)c(O)c1Br`
Reply: inactive

Query: Which result was noted for this molecule in the test: `CNNCc1ccc(C(=O)NC(C)C)cc1`
Reply: inactive

---

# ASSAY_INFO: A CellTox Green Cytotoxicity Assay to monitor cytotoxicity in HepG2 cells - 0 hour (AID 1224882); note: nearly all actives have a fitted effect of over 35% in size
# REPORTED_CONDITIONS: CellTox Green fluorescence; series mostly up to 76.8 µM
Calls of active or inactive are those of the source. The call rests on the fitted dose curve; in most records, active means well fitted activation curve with a large enough effect in the repeat runs; inconclusive means weak or mixed curves; inactive means flat fitted curve, though single readings scatter.
Choose the fitting class; nothing outside Yes (active), No (inactive) is accepted.

Worked set:
> print(dat)
                                   molecule  assigned.class
1           CCCCNC(=O)NS(=O)(=O)c1ccc(C)cc1              No
2       CCCCCCCCCCCCCCCC[N+](C)(C)Cc1ccccc1              No
3  CC1(C)S[C@@H]2[C@H](NC(=O)[C@H](N)c3ccccc3)C(=O)N2[C@H]1C(=O)O              No
4                                 Oc1ccccc1              No
5                       C=CCc1ccc(O)c(OC)c1              No
6                   Cc1ncc([N+](=O)[O-])n1C              No

Query: Which result was noted for this molecule in the test: `Nc1ccc2c(c1)CN1C(=O)c3ccccc3C1=N2`
Reply: Yes

Query: Which result was noted for this molecule in the test: `CCOc1ccc(NC(C)=O)cc1`
Reply: No

Query: Which result was noted for this molecule in the test: `C=C1CC[C@H](O)C/C1=C\C=C1/CCC[C@]2(C)[C@@H]([C@H](C)CCCC(C)C)CC[C@@H]12`
Reply: No

Query: Which result was noted for this molecule in the test: `CC(=O)Nc1c(I)c(NC(C)=O)c(I)c(C(=O)O)c1I`
Reply: No

Query: Which result was noted for this molecule in the test: `C/C=C/C=C/C(=O)O`
Reply: No

Query: Which result was noted for this molecule in the test: `CNNCc1ccc(C(=O)NC(C)C)cc1`
Reply: No

Query: Which result was noted for this molecule in the test: C=C(C)C(=O)OCC(C)O (configuration not stated)
Reply: No

Query: Which result was noted for this molecule in the test: `Nc1c2c(nc3ccccc13)CCCC2`
Reply: No

Query: Which result was noted for this molecule in the test: `COc1ccc(OC(F)(F)F)cc1CN[C@H]1CCCN[C@H]1c1ccccc1`
Reply: No

Query: Which result was noted for this molecule in the test: `CN1CCC[C@H]1c1cccnc1`
Reply: No

Query: Which result was noted for this molecule in the test: `O=c1[nH]cnc2c1ncn2[C@H]1CC[C@@H](CO)O1`
Reply: No

---

# ASSAY_INFO: qHTS assay to identify small molecule antagonists of the retinoid acid receptor (RAR) signaling pathway - cell viability counter screen (AID 1159551); note: nearly all actives have a fitted effect of over 35% in size
# REPORTED_CONDITIONS: C3RL4 cells viability, ATP luminescence (CellTiter-Glo), 6 h; series mostly up to 92.4 µM
Records with an inconclusive call do not appear. The source made the active and inactive calls. Calls come from the whole dose curve; as a rule, active = well fitted cell-killing curve with a large enough effect in the repeat runs; inconclusive = weak or mixed curves, or effect the other way; inactive = flat fitted curve, though single readings scatter.
Choose the fitting class; nothing outside Y (active), N (inactive) is accepted.

Worked set:
> print(dat)
                            chemical.string  assigned.class
1  COc1ccc2c(c1)c(CC(=O)O)c(C)n2C(=O)c1ccc(Cl)cc1               N
2   CC(=O)Nc1c(I)c(NC(C)=O)c(I)c(C(=O)O)c1I               N
3                 CNNCc1ccc(C(=O)NC(C)C)cc1               N
4     CN1CCc2cccc3c2[C@H]1Cc1ccc(O)c(O)c1-3               Y
5        NS(=O)(=O)c1cc2c(cc1Cl)NCNS2(=O)=O               N

Query: Which result was noted for this molecule in the test: `F[B-](F)(F)F`
Reply: N

---

# ASSAY_INFO: A CellTox Green Cytotoxicity Assay to monitor cytotoxicity in HepG2 cells - 32 hour (AID 1224883); note: nearly all actives have a fitted effect of over 50% in size
# REPORTED_CONDITIONS: CellTox Green fluorescence; series mostly up to 76.8 µM
Inconclusive results are not listed. Activity calls are given as the source filed them. Calls come from the whole dose curve; as a rule, active = well fitted activation curve with a large enough effect in the repeat runs; inconclusive = weak or mixed curves; inactive = flat fitted curve, though single readings scatter.
Choose the fitting class; nothing outside active, inactive is accepted.

Worked set:
> print(dat)
                                    compound  assigned.class
 1    O=c1[nH]cnc2c1ncn2[C@H]1CC[C@@H](CO)O1        inactive
 2  COc1ccc(OC(F)(F)F)cc1CN[C@H]1CCCN[C@H]1c1ccccc1          active
 3                                 NC1CCCCC1        inactive
 4    O=C(O)CC(O)C(=O)O (stereo unspecified)        inactive
 5                Cn1c(=O)c2c(ncn2C)n(C)c1=O        inactive
 6  CC/C(=C(\c1ccccc1)c1ccc(OCCN(C)C)cc1)c1ccccc1          active
 7  C1CCC(C(CC2CCCCN2)C2CCCCC2)CC1 (stereo unspecified)          active
 8  CCCCC1(COC(=O)CCC(=O)O)C(=O)N(c2ccccc2)N(c2ccccc2)C1=O        inactive
 9                     Cc1ccc(S(=O)(=O)O)cc1        inactive
10      CCCCC(CC)C(=O)O (stereo unspecified)        inactive

Okay, now this compound:
Query: Which result was noted for this compound in the test: `CN1CCc2cccc3c2[C@H]1Cc1ccc(O)c(O)c1-3`
Reply: inactive

---

# ASSAY_INFO: Caspase-3/7 induction in HepG2 cells by small molecules, qHTS cell viability counter screen (AID 1346981); note: nearly all actives have a fitted effect of over 30% in size
# REPORTED_CONDITIONS: CellTiter-Fluor fluorescence, 17 h; series mostly up to 92.4 µM
# Text: U.S. Tox21 Program National Center for Advancing Translational Sciences [NCATS] NIH Chemical Genomics Center [NCGC] U.S. Environmental Protection Agency [EPA] National Institutes of Environmental Health Sciences [NIEHS] National Toxicology Program [NTP] U.S. Food and Drug Administration [FDA] Tox21 Assay Overview: Apoptosis is a process of programmed cell death and plays a central role in the development of multicellular organisms. […]
Results filed as inconclusive are left out. Active and inactive are the calls of the source. Calls follow the shape of the dose curve; as a rule, active = well fitted cell-killing curve with a large enough effect in the repeat runs; inconclusive = weak or mixed curves, or effect the other way; inactive = flat fitted curve, though single readings scatter.
Choose the fitting class; nothing outside 1 (yes) (active), 0 (no) (inactive) is accepted.

Worked set:
> print(dat)
                             compound  assigned.class
1              Cc1cc(=O)oc2cc(O)ccc12          0 (no)
2  NS(=O)(=O)c1cc2c(cc1Cl)NCNS2(=O)=O          0 (no)
3       CCc1nc(N)nc(N)c1-c1ccc(Cl)cc1          0 (no)

Query: Which result was noted for this compound in the test: `NC(=O)c1cccnc1`
Reply: 0 (no)

Query: Which result was noted for this compound in the test: `O=c1[nH]cc(F)c(=O)[nH]1`
Reply: 0 (no)
